target: human sodium ion channel 1.7 (hNav1.7) (Homo sapiens); assay: Blocking effect against sodium ion channel Nav1.7, IonFlux16 auto patch clamp in hNav1.7 HEK293 cells; format: cell-based; conditions: hNav1.7 HEK293 cells; inhibition of peak current after 50 seconds treatment; eight concentrations; read-out: IC50
Sequence (Q15858 whole entry): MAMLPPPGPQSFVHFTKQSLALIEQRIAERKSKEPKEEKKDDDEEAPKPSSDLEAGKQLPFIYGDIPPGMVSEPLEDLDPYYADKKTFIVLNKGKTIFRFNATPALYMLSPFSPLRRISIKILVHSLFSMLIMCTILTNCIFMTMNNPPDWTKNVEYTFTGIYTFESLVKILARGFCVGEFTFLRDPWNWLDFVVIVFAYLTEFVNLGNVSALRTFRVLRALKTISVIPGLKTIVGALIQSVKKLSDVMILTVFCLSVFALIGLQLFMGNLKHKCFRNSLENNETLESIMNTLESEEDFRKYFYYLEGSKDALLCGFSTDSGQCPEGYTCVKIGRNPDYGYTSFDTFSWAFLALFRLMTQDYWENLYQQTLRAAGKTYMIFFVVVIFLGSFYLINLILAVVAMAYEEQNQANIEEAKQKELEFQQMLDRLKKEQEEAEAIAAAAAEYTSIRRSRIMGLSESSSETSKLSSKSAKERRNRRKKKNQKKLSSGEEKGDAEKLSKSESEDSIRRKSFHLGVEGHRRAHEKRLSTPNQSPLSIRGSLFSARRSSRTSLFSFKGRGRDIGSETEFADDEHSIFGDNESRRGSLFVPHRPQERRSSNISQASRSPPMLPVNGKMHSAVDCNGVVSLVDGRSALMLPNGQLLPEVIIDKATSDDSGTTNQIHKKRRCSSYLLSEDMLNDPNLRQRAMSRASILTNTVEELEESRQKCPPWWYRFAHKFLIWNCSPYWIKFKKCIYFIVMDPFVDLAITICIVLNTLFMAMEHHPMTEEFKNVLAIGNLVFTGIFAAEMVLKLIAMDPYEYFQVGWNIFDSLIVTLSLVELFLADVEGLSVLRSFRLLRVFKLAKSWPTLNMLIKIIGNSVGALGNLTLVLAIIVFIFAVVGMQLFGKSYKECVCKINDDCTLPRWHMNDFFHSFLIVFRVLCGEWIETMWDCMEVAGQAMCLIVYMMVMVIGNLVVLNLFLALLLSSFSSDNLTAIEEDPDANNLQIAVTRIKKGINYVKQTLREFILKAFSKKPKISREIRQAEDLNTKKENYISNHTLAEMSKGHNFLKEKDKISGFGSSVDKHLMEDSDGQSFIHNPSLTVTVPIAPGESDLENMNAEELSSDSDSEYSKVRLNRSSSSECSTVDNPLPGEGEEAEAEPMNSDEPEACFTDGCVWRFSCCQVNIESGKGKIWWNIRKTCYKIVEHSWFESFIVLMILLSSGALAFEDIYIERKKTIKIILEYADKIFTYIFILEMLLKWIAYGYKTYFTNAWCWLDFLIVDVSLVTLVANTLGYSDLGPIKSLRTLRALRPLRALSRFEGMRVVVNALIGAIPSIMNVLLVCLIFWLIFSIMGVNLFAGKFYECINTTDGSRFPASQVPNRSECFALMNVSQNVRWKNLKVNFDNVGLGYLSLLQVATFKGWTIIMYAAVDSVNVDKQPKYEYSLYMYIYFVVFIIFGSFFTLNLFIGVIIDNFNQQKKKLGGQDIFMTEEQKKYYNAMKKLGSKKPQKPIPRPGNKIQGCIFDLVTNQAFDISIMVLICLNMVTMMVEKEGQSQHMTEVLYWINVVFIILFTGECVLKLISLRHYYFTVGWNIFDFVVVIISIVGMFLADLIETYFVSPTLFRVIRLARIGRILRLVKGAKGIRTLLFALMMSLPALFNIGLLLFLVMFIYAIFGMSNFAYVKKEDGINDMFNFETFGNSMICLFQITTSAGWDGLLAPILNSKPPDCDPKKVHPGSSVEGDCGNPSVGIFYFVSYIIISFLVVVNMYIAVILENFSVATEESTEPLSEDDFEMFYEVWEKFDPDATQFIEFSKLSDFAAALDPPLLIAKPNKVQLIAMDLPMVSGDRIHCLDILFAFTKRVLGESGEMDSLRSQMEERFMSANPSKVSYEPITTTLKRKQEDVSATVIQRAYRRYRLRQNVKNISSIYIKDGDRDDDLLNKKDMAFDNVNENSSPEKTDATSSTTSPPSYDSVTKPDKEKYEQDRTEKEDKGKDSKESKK
pIC50: −log10 of the molar value.
The molecules listed here are annotated with their pIC50.

molecule | limit operator | pIC50
CS(=O)(=O)NC(=O)c1cc(Cl)c(-n2cc(-c3cccc(C#N)c3)c3cc(Cl)cnc32)cc1F [Example 194] | = | 6.32
CS(=O)(=O)NC(=O)c1cc(Cl)c(-n2cc(-c3ccccc3C(F)(F)F)c3cc(Cl)cnc32)cc1F [Example 193] | = | 7.00
CS(=O)(=O)NC(=O)c1cc(Cl)c(-n2nc(-c3ccc(F)cc3)c3cc(Cl)ccc32)cc1F [Example 55] | = | 7.29
CS(=O)(=O)NC(=O)c1cc(Cl)c(-n2nc(-c3ccc(F)cc3F)c3ccccc32)cc1F [Example 176] | = | 6.70
COC(=O)c1nn(-c2cc(F)c(C(=O)NS(C)(=O)=O)cc2Cl)c2cc(OCc3ccccc3)ccc12 [Example 46] | < | 5.00
CN(C)S(=O)(=O)NC(=O)c1cc(Cl)c(-n2nc(-c3ccc(Cl)cc3F)c3cc(Cl)ccc32)cc1F [Example 138] | = | 7.00
CS(=O)(=O)NC(=O)c1cc(Cl)c(-n2nc(-c3ccc([N+](=O)[O-])cc3)c3cc(Cl)ccc32)cc1F [Example 81] | = | 6.62
CS(=O)(=O)NC(=O)c1cc(Cl)c(-n2nc(Cl)c3cc(-c4ccc(F)c(C#N)c4)ccc32)cc1F [Example 239] | = | 6.55
CS(=O)(=O)NC(=O)c1cc(Cl)c(-n2nc(-c3ccc(C#N)cc3)c3cc(Cl)ccc32)cc1F [Example 62] | = | 6.26
Cc1nn(-c2cc(F)c(C(=O)NS(C)(=O)=O)cc2Cl)c2ccc(Cl)cc12 [Example 1] | < | 5.00
CS(=O)(=O)NC(=O)c1cc(Cl)c(-n2cc(Cl)c3cc(Cl)ccc32)cc1F [Example 266] | = | 6.88
COc1ccc2c(c1)c(-c1ccc(Cl)cc1F)nn2-c1cc(F)c(C(=O)NS(C)(=O)=O)cc1Cl [Example 169] | = | 6.74
CS(=O)(=O)NC(=O)c1cc(Cl)c(-n2cc(-c3ccc(F)cc3)c3cc(F)cnc32)cc1F [Example 206] | = | 6.68
CS(=O)(=O)NC(=O)c1ccc(-n2nc(-c3ccc(F)cc3)c3cc(Cl)ccc32)c(C#N)c1 [Example 101] | = | 5.52
CS(=O)(=O)NC(=O)c1cc(Cl)c(-n2nc(-c3cccc(C#N)c3)c3cc(Cl)ccc32)cc1F [Example 61] | = | 7.02
CS(=O)(=O)NC(=O)c1cc(Cl)c(-n2nc(Cl)c3cc(-c4cncnc4)ccc32)cc1F [Example 241] | < | 5.00
CS(=O)(=O)NC(=O)c1cc(Cl)c(-n2nc(-c3ccc(C(F)(F)F)cc3)c3ccccc32)cc1F [Example 178] | = | 6.48
CS(=O)(=O)NC(=O)c1cc(Cl)c(-n2nc(-c3cccc(C(F)(F)F)c3)c3cc(Cl)ccc32)cc1F [Example 64] | = | 7.03
CS(=O)(=O)NC(=O)c1cc(Cl)c(-n2nc(-c3ccc(Cl)cc3)c3cc(Cl)ccc32)cc1F [Example 67] | = | 7.48
COc1ccc(-c2cnc3c(c2)c(Cl)cn3-c2cc(F)c(C(=O)NS(C)(=O)=O)cc2Cl)cc1 [Example 260] | = | 6.33
CS(=O)(=O)NC(=O)c1cc(Cl)c(-n2nc(-c3cccnc3)c3ccccc32)cc1F [Example 180] | < | 5.00
COc1ccccc1-c1nn(-c2ccc(C(=O)NS(C)(=O)=O)cc2C#N)c2ccc(Cl)cc12 [Example 92] | = | 5.28
CC(Oc1ccc2c(c1)c(Cl)nn2-c1cc(F)c(C(=O)NS(C)(=O)=O)cc1Cl)c1ccc(F)cc1 (stereo not drawn) [Example 39] | = | 6.55
CS(=O)(=O)NC(=O)c1cc(Cl)c(-n2cc(-c3ccccc3C(F)(F)F)c3cccnc32)cc1F [Example 216] | = | 6.43
CS(=O)(=O)NC(=O)c1cc(Cl)c(-n2nc(-c3ccc(F)cc3Cl)c3cc(Cl)ccc32)cc1F [Example 74] | = | 7.70
CS(=O)(=O)NC(=O)c1cc(Cl)c(-n2cc(-c3cccc(F)c3)c3cc(Cl)cnc32)cc1F [Example 190] | = | 6.77
CS(=O)(=O)NC(=O)c1cc(Cl)c(-n2nc(Cl)c3cc(-c4ccccc4F)ccc32)cc1F [Example 234] | = | 6.95
CS(=O)(=O)NC(=O)c1ccc(-n2nc(-c3cccc(C#N)c3)c3cc(Cl)ccc32)c(C#N)c1 [Example 95] | < | 5.00
CS(=O)(=O)NC(=O)c1cc(Cl)c(-n2cc(Cl)c3c(OCc4ccccc4)cccc32)cc1F [Example 270] | = | 6.73
O=S(=O)(Nc1cscn1)c1cc(Cl)c(-n2nc(-c3ccc(Cl)cc3F)c3cc(Cl)ccc32)cc1F [Example 287] | = | 5.08
